- Tested on: Haemophilus influenzae
- assayNotes: Minimum inhibitory concentration required for antibacterial activity against Haemophilus influenzae MB 5363 strain
- Type: functional
measure: MIC (mg/L)

See these solved cases before continuing.
| smilesNotation | MIC, mg/L |
| --- | --- |
| CC[C@H]1OC(=O)[C@H](C)[C@@H](O[C@H]2C[C@@](C)(OC)[C@@H](O)[C@H](C)O2)[C@H](C)[C@@H](O[C@@H]2O[C@H](C)C[C@H](N(C)C)[C@H]2O)[C@@]2(C)C[C@@H](C)N=C(O2)[C@H](C)[C@@H](O)[C@]1(C)O | 64 |
| CC[C@H]1OC(=O)[C@H](C)[C@@H](O[C@H]2C[C@@](C)(OC)[C@@H](O)[C@H](C)O2)[C@H](C)[C@@H](O[C@@H]2O[C@H](C)C[C@H](N(C)C)[C@H]2O)[C@](C)(O)C[C@@H](C)NC[C@H](C)[C@@H](O)[C@]1(C)O | 4 |

(a) CC[C@H]1OC(=O)[C@H](C)[C@@H](O[C@H]2C[C@@](C)(OC)[C@@H](O)[C@H](C)O2)[C@H](C)[C@@H](O[C@@H]2O[C@H](C)C[C@H](N(C)C)[C@H]2O)[C@](C)(O)C[C@@H](C)NC(=O)[C@H](C)[C@@H](O)[C@]1(C)O
(b) CC[C@H]1OC(=O)[C@H](C)[C@@H](O[C@H]2C[C@@](C)(OC)[C@@H](O)[C@H](C)O2)[C@H](C)[C@@H](O[C@@H]2O[C@H](C)C[C@H](N(C)C)[C@H]2O)[C@](C)(O)C[C@@H](C)/N=C2/O[C@@]1(C)[C@H](O)[C@H]2C
Looking only at measured MIC, which entry is lower, a or b ? The response must carry the label of the picked entry.
a
(a: 32 mg/L, b: 64 mg/L)

// provenance: ChEMBL document CHEMBL1126507
